SYSTEM: UniProt:P51589
Sequence (P51589 whole entry): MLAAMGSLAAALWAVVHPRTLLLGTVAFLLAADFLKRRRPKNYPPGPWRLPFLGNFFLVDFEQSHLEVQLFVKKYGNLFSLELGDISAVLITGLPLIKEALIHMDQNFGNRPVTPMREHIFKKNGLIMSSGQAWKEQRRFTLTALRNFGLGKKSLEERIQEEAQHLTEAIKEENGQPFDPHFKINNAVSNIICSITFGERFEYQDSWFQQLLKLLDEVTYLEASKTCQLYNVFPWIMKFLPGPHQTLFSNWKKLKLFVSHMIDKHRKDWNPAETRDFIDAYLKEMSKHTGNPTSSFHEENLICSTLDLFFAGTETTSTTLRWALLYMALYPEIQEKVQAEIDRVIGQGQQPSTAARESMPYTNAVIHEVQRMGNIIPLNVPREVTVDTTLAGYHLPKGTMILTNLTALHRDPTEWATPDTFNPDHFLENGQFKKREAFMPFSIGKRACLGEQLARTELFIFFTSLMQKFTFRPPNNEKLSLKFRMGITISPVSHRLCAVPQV
MEASUREMENT_PROTOCOL: Inhibition of recombinant CYP2J2 (unknown origin) treated with AMG 853
pKi: −log10 of the molar value.
ENDPOINT_NAME: pKi

| COMPOUND_STRUCTURE | REPORTED_MEASUREMENT |
| --- | --- |
| CC(C)(CO)NC(=O)c1ccc(Oc2cc(F)c(CC(=O)O)cc2Cl)c(NS(=O)(=O)c2ccc(C3CC3)cc2Cl)c1 | 3.62 |

----------
SYSTEM: Cytochrome P450 1A2 (Homo sapiens)
Sequence (P05177 whole entry): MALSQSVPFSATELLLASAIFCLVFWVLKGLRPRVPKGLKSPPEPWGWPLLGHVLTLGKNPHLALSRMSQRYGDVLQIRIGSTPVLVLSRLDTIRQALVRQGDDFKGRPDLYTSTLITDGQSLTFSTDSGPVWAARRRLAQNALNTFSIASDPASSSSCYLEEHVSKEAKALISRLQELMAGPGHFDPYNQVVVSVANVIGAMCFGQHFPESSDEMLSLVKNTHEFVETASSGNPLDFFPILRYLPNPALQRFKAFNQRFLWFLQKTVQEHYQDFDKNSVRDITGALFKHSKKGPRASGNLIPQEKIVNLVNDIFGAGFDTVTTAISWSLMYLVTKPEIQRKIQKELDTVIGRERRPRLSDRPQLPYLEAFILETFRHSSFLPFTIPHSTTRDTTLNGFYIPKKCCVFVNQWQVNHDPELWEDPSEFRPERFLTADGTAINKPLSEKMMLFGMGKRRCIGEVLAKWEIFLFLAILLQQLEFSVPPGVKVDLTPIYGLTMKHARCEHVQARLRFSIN
pKi: −log10 of the molar value.
The entries below come with measured pKi values attached.
ENDPOINT_NAME: pKi

| COMPOUND_STRUCTURE | SYSTEM | REPORTED_MEASUREMENT |
| --- | --- | --- |
| CC(C)(C)NC(=O)c1ccc(Oc2cc(F)c(CC(=O)O)cc2Cl)c(NS(=O)(=O)c2ccc(C3CC3)cc2Cl)c1 | Cytochrome P450 1A2 (Homo sapiens) | < 4.52 |
| CC(C)(C)NC(=O)c1ccc(Oc2cc(F)c(CC(=O)O[C@@H]3O[C@H](C(=O)O)[C@@H](O)[C@H](O)[C@H]3O)cc2Cl)c(NS(=O)(=O)c2ccc(C3CC3)cc2Cl)c1 | Cytochrome P450 1A2 (Homo sapiens) | < 4.52 |

----------
MEASUREMENT_PROTOCOL: AUC (0 to infinity) in healthy human at 50 mg, po
Type: ADME, organism-based
Parameters: dose 50 mg, route oral, time infinity
TEST_SETTINGS: plasma

| COMPOUND_STRUCTURE | AUC(0-inf) [ng·h/mL] |
| --- | --- |
| CC(C)(C)NC(=O)c1ccc(Oc2cc(F)c(CC(=O)O)cc2Cl)c(NS(=O)(=O)c2ccc(C3CC3)cc2Cl)c1 | 671 |

----------
MEASUREMENT_PROTOCOL: Cmax in healthy human at 50 mg, po in presence of ketoconazole
Assay type: ADME, organism-based
Set-up: dose 50 mg, route oral
TEST_SETTINGS: in vivo

| COMPOUND_STRUCTURE | Cmax, ng/mL |
| --- | --- |
| CC(C)(C)NC(=O)c1ccc(Oc2cc(F)c(CC(=O)O)cc2Cl)c(NS(=O)(=O)c2ccc(C3CC3)cc2Cl)c1 | 270 |

----------
SYSTEM: CYP3A4 (Homo sapiens, UniProt P08684)
MEASUREMENT_PROTOCOL: Induction of CYP3A4 in human hepatocytes using midazolam as substrate at 0.3 to 30 uM treated every 24 hrs for 2 days measured on day 5 by LC-MS/MS analysis relative to control
ENDPOINT_NAME: fold induction at 48 h, 30 µM

| COMPOUND_STRUCTURE | ENDPOINT_NAME | REPORTED_MEASUREMENT |
| --- | --- | --- |
| CC(C)(C)NC(=O)c1ccc(Oc2cc(F)c(CC(=O)O)cc2Cl)c(NS(=O)(=O)c2ccc(C3CC3)cc2Cl)c1 | fold induction at 48 h, 30 µM | 1.4 |

----------
MEASUREMENT_PROTOCOL: AUC (0 to infinity) in healthy human at 50 mg, po in presence of ketoconazole
Format: ADME, organism-based
Design: dose 50 mg, route oral, time infinity
TEST_SETTINGS: plasma

| COMPOUND_STRUCTURE | AUC(0-inf) [ng·h/mL] |
| --- | --- |
| CC(C)(C)NC(=O)c1ccc(Oc2cc(F)c(CC(=O)O)cc2Cl)c(NS(=O)(=O)c2ccc(C3CC3)cc2Cl)c1 | 800 |

----------
The entries below come with measured Km values attached.
MEASUREMENT_PROTOCOL: Drug metabolism in human liver microsomes assessed as CYP3A5*1/*1-mediated compound formation treated with AMG 853 after 15 mins by LC-MS/MS analysis
Format: ADME
TEST_SETTINGS: 0.25 h

| COMPOUND_STRUCTURE | ENDPOINT_UNIT | Km |
| --- | --- | --- |
| CC(C)(CO)NC(=O)c1ccc(Oc2cc(F)c(CC(=O)O)cc2Cl)c(NS(=O)(=O)c2ccc(C3CC3)cc2Cl)c1 | µM | 2.75 |
| CC(C)(C)NC(=O)c1ccc(Oc2cc(F)c(CC(=O)O)cc2Cl)c(NS(=O)(=O)c2ccc(C3(O)CC3)cc2Cl)c1 | µM | 38.5 |

----------
SYSTEM: Cytochrome P450 2C8 (Homo sapiens)
MEASUREMENT_PROTOCOL: Competitive inhibition of CYP2C8 in human liver microsomes assessed as rosiglitazone demethylation after 20 mins by LC-MS/MS analysis
Format: ADME

| COMPOUND_STRUCTURE | SYSTEM | ENDPOINT_UNIT | Ki |
| --- | --- | --- | --- |
| CC(C)(C)NC(=O)c1ccc(Oc2cc(F)c(CC(=O)O)cc2Cl)c(NS(=O)(=O)c2ccc(C3CC3)cc2Cl)c1 | Cytochrome P450 2C8 (Homo sapiens) | µM | 6 |

----------
SYSTEM: Cytochrome P450 3A4 (Homo sapiens, UniProt P08684)
MEASUREMENT_PROTOCOL: Inhibition of CYP3A4 in human liver microsomes using midazolam as substrate after 5 to 30 mins by LC-MS/MS analysis
Format: ADME
pKi: −log10 of the molar value.
ENDPOINT_NAME: pKi

| MOLECULE | REPORTED_MEASUREMENT |
| --- | --- |
| CC(C)(C)NC(=O)c1ccc(Oc2cc(F)c(CC(=O)O)cc2Cl)c(NS(=O)(=O)c2ccc(C3CC3)cc2Cl)c1 [VIDUPIPRANT] | < 4.52 |
| CC(C)(C)NC(=O)c1ccc(Oc2cc(F)c(CC(=O)O[C@@H]3O[C@H](C(=O)O)[C@@H](O)[C@H](O)[C@H]3O)cc2Cl)c(NS(=O)(=O)c2ccc(C3CC3)cc2Cl)c1 | < 4.52 |

----------
SYSTEM: Cytochrome P450 1A2 (Homo sapiens)

| COMPOUND_STRUCTURE | IC50 |
| --- | --- |
| CC(C)(C)NC(=O)c1ccc(Oc2cc(F)c(CC(=O)O)cc2Cl)c(NS(=O)(=O)c2ccc(C3CC3)cc2Cl)c1 | ≥ 30 µM |

----------
The entries below come with measured fold induction at 48 h, up to 30 µM values attached.
SYSTEM: CYP1A2 (Homo sapiens)
Sequence (P05177 whole entry): as above
MEASUREMENT_PROTOCOL: Induction of CYP1A2 in human hepatocytes using phenacetin as substrate at 0.3 to 30 uM treated every 24 hrs for 2 days measured on day 5 by LC-MS/MS analysis relative to control
Assay type: ADME, cell-based, Hepatocyte
TEST_SETTINGS: probe phenacetin, read-out: FC

| COMPOUND | SYSTEM | fold induction at 48 h, up to 30 µM |
| --- | --- | --- |
| CC(C)(C)NC(=O)c1ccc(Oc2cc(F)c(CC(=O)O)cc2Cl)c(NS(=O)(=O)c2ccc(C3CC3)cc2Cl)c1 | CYP1A2 (Homo sapiens) | 1.4 |
| COc1ccc2[nH]c([S+]([O-])Cc3ncc(C)c(OC)c3C)nc2c1 (configuration not stated) | CYP1A2 (Homo sapiens) | 47.4 |

----------
SYSTEM: UniProt P20813
Sequence (P20813 whole entry): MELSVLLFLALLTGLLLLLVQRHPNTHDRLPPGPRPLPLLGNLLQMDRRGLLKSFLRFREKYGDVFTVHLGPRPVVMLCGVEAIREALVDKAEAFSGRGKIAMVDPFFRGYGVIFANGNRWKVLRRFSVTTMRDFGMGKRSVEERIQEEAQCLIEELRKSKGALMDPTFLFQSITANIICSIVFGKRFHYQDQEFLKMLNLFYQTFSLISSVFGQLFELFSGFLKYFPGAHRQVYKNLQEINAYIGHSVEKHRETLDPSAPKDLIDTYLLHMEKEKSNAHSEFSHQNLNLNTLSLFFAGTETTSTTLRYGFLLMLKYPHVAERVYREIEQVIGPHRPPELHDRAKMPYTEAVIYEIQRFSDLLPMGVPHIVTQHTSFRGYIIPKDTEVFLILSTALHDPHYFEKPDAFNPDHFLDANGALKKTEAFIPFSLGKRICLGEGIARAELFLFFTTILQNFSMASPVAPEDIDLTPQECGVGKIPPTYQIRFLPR
MEASUREMENT_PROTOCOL: Induction of CYP2B6 in human hepatocytes using bupropion as substrate at 0.3 to 30 uM treated every 24 hrs for 2 days measured on day 5 by LC-MS/MS analysis relative to control
Type: ADME, cell-based, Hepatocyte
TEST_SETTINGS: probe bupropion, read-out: FC

| COMPOUND | SYSTEM | fold induction at 48 h, up to 30 µM |
| --- | --- | --- |
| CCC1(c2ccccc2)C(=O)NC(=O)NC1=O [PHENOBARBITAL] | UniProt P20813 | 22.1 |
| CC(C)(C)NC(=O)c1ccc(Oc2cc(F)c(CC(=O)O)cc2Cl)c(NS(=O)(=O)c2ccc(C3CC3)cc2Cl)c1 [VIDUPIPRANT] | UniProt P20813 | 1.4 |
